Please provide measured AUC(0-t) at 12 h for the entries that follow.
# method.summary: AUC (0 to 12 hrs) in Sprague-Dawley rat at 40 mg/kg, po measured upto 12 hrs by mass spectrometry
# Format: ADME, organism-based
# applied.conditions: in vivo
Param answer (str): number followed by unit.

input: Answer with the recorded AUC(0-t) at 12 h of `COC(=O)[C@]1(Cc2ccc(O)c(CC=C(C)C)c2)OC(=O)C(O)=C1c1ccc(O)cc1` only.
output: 28.9 ng·h/mL

input: Quote AUC(0-t) at 12 h reported for `CC(=O)[C@]1(Cc2ccc(O)c(CC=C(C)C)c2)OC(=O)C(O)=C1c1ccc(O)cc1` please.
output: 6540 ng·h/mL

---

# method.summary: Half life in Sprague-Dawley rat at 40 mg/kg, po measured upto 12 hrs by mass spectrometry
# Format: ADME, organism-based
# applied.conditions: in vivo
endpoint.name: half-life (h)
Give just the numeric value; h need not be written.

input: Answer with the recorded half-life for the compound listed here: `CC(=O)[C@]1(Cc2ccc(O)c(CC=C(C)C)c2)OC(=O)C(O)=C1c1ccc(O)cc1`
output: 4.1

input: Quick one: give measured half-life for `COC(=O)[C@]1(Cc2ccc(O)c(CC=C(C)C)c2)OC(=O)C(O)=C1c1ccc(O)cc1`
output: 4.7

---

# method.summary: Metabolic stability in human liver microsmes assessed as half life measured upto 60 mins by HPLC analysis
# Assay type: ADME
# applied.conditions: liver microsomes
Record form. Attribute: half-life. Fill in for each entry.
Write the quantity with the unit trailing the number.

input: Please give the documented half-life of `COC(=O)[C@]1(Cc2ccc(O)c(CC=C(C)C)c2)OC(=O)C(O)=C1c1ccc(O)cc1`
output: 0.283 h

input: Recall and state the measured half-life for `CC(=O)[C@]1(Cc2ccc(O)c(CC=C(C)C)c2)OC(=O)C(O)=C1c1ccc(O)cc1` .
output: 8.88 h

---

Can you tell me AUC(0-t) at 12 h for the items I'm about to list?
# method.summary: AUC (0 to 12 hrs) in Sprague-Dawley rat at 10 mg/kg, iv measured upto 12 hrs by mass spectrometry
# Assay type: ADME, organism-based
# applied.conditions: in vivo
Field: numeric (ng·h/mL). Do not append units.

input: Read off the recorded AUC(0-t) at 12 h for `CC(=O)[C@]1(Cc2ccc(O)c(CC=C(C)C)c2)OC(=O)C(O)=C1c1ccc(O)cc1`
output: 4090

input: Answer with the recorded AUC(0-t) at 12 h of `COC(=O)[C@]1(Cc2ccc(O)c(CC=C(C)C)c2)OC(=O)C(O)=C1c1ccc(O)cc1` only.
output: 21.7

---

# method.summary: Metabolic stability in human liver microsmes assessed as half life in presence of NADPH measured upto 60 mins by HPLC analysis
# Format: ADME
# applied.conditions: liver microsomes
What half-life was measured for each of the following?
Number only, in h; omit the unit.

input: Answer with reported half-life of `COC(=O)[C@]1(Cc2ccc(O)c(CC=C(C)C)c2)OC(=O)C(O)=C1c1ccc(O)cc1`
output: 0.326

input: Answer with the recorded half-life of `CC(=O)[C@]1(Cc2ccc(O)c(CC=C(C)C)c2)OC(=O)C(O)=C1c1ccc(O)cc1` only.
output: 3.73

---

# method.summary: Clearance in Sprague-Dawley rat at 40 mg/kg, po measured upto 12 hrs by mass spectrometry
# Format: ADME, organism-based
# applied.conditions: in vivo
endpoint.name: CL/F (mL/min/kg)
Give the value in mL/min/kg but do not write mL/min/kg after it.

input: For the molecule `CC(=O)[C@]1(Cc2ccc(O)c(CC=C(C)C)c2)OC(=O)C(O)=C1c1ccc(O)cc1` , report CL/F.
output: 90

---

Exercise: state measured Tmax for each of the compounds provided.
# method.summary: Tmax in Sprague-Dawley rat at 40 mg/kg, po measured upto 12 hrs by mass spectrometry
# Assay type: ADME, organism-based
# applied.conditions: in vivo
Quote the value and follow it with the unit of measurement.

input: Determine from records and report Tmax for `CC(=O)[C@]1(Cc2ccc(O)c(CC=C(C)C)c2)OC(=O)C(O)=C1c1ccc(O)cc1`
output: 12 min

input: Tell me its Tmax given `COC(=O)[C@]1(Cc2ccc(O)c(CC=C(C)C)c2)OC(=O)C(O)=C1c1ccc(O)cc1` as the entry.
output: 42 min

Source of measurements: ChEMBL document CHEMBL5543157
